The reader will find reported Kd values listed item by item below.
# TARGET OR TEST SYSTEM: T1, recombinant human TIGIT (human, UniProt Q495A1 22-141, limits assumed)
# T1 construct: recombinant human TIGIT used in Carterra SPR; also called hTIGIT
# T1 sequence (looked up): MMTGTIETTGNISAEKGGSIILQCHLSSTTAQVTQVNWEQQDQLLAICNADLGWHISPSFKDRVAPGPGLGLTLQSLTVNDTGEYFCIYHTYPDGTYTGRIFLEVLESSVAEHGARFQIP
# PROTOCOL SUMMARY: SPR Carterra, average
# Protocol: Binding affinities of VHH-Fc proteins to recombinant human TIGIT were measured by SPR using a Carterra instrument (Table 10A). […] Average values reported from measurements from 1-2 samples.
Your answer should be a plain number; it is taken to be in nM.

{"columns": ["BINDER", "UNIT NAME", "Kd"],
 "data": [
  ["TIGIT-SC143 (Fc fusion, VHH-Fc fusion in assay) VHH: EVQLVESGGGLVQPGGSLRLSCAASGFTLGYYVMGWFRQAPGKEREFVAAISASGTLRAYADSVEGRFTISADNSKNTAYLQMNSLKPEDTAVYYCARAELGYSYGSVDGYWGQGTLVTVSS", "nM", 474],
  ["TIGIT-SC147 (Fc fusion, VHH-Fc fusion in assay) VHH: EVQLVESGGGLVQPGGSLRLSCAASGTITSAVFMGWFRQAPGKEREFVAAVIWRGGSLKSYADSVKGRFTISADNSKNTAYLQMNSLKPEDTAVYYCAKLAVAGNYYYYGMDVWGQGTLVTVSS", "nM", 24],
  ["TIGIT-SC43 (Fc fusion, VHH-Fc fusion in assay) VHH: EVQLVESGGGLVQPGGSLRLSCAASGFTFADYAMGWFRQAPGKEREMVAAIGWNSGTTEYADSVKGRFTISADNSKNTAYLQMNSLKPEDTAVYYCARDTNGWFFDFWGQGTLVTVSS", "nM", 12]
]}

// below: Kd requested for another binder
Task: What does the record list as Kd for TIGIT-SC168 (Fc fusion, VHH-Fc fusion in assay) VHH: EVQLVESGGGLVQPGGSLRLSCAASGFTFDRSWMGWFRQAPGKEREWVASVLRGGYAWYADSVKGRFTISADNSKNTAYLQMSSLKPEDTAVYYCAREGSGYASDYWGQGTLVTVSS ?
Output: 83.6

FYI, the data here is from patent US20260184782A1.
